Source of measurements: patent US20030068675

Target: T1, ZFP SBS#1417 (synthetic)
T1 chain: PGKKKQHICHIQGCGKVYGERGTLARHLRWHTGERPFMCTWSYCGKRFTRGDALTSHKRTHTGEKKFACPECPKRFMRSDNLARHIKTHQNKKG
Experiment: EMSA
Conditions: tags: MBP fusion

- Binder: "GAGTTGGCC (dsDNA) DNA 1: GAGTTGGCC DNA 2: GGCCAACTC"
  Kd (nM): 1.4
